Assay Overview: Diuretic action (urine output for 5 hours after physiological saline loading in rats)
Format: in vivo, male Wistar rats
Recorded Conditions: Rattus norvegicus, sc, dose giving urine output of 500 (non-dosed group = 100), 5 hours after saline 20 ml/kg p.o.
Readout Kind: ED (500% urine output) (mg/kg)
Give your result in mg/kg as a bare value.

Some entries whose results are on file:
Sample Smiles	Unit Info	ED (500% urine output)
CN(C(=O)Cc1csc2ccccc12)[C@H]1CC[C@@]2(O)[C@H]3Cc4ccc(O)c5c4[C@@]2(CCN3CC2CC2)[C@H]1O5	mg/kg	0.2
CN(C(=O)OCc1ccc([N+](=O)[O-])cc1)[C@H]1CC[C@@]2(O)[C@H]3Cc4ccc(O)c5c4[C@@]2(CCN3CC2CC2)[C@H]1O5	mg/kg	0.0044

Query: Could you share which ED (500% urine output) value was measured for `CN(C(=O)/C=C/c1ccc(Cl)c(Cl)c1)[C@H]1CC[C@@]2(O)[C@H]3Cc4ccc(O)c5c4[C@@]2(CCN3CC2CC2)[C@H]1O5` ?
Result: 0.229

----------
Listing: log10 ED (200% urine output) of selected compounds
Assay Overview: Diuretic action (urine output for 5 hours after physiological saline loading in rats)
Format: in vivo, male Wistar rats
Recorded Conditions: Rattus norvegicus, sc, dose giving urine output of 200 (non-dosed group = 100), 5 hours after saline 20 ml/kg p.o.
The base-10 logarithm of ED (200% urine output), taken with ED (200% urine output) in µg/kg, is what appears here.

Field: example entries. Status: answers known.
Compound	log10 ED (200% urine output)
CN(C(=O)Cc1csc2ccccc12)[C@H]1CC[C@@]2(O)[C@H]3Cc4ccc(O)c5c4[C@@]2(CCN3CC2CC2)[C@H]1O5 [Compound 107]	0.79
CN(C(=O)/C=C/c1ccccc1)[C@H]1CC[C@@]2(O)[C@H]3Cc4ccc(O)c5c4[C@@]2(CCN3CC2CC2)[C@H]1O5 [Compound 24]	-0.16
CN(C(=O)Cc1ccc(F)c(F)c1)[C@H]1CC[C@@]2(O)[C@H]3Cc4ccc(O)c5c4[C@@]2(CCN3CC2CC2)[C@H]1O5 [Compound 105]	1.28
CN(C(=O)/C=C/c1cccc(F)c1)[C@@H]1CC[C@@]2(O)[C@H]3Cc4ccc(O)c5c4[C@@]2(CCN3CC2CC2)[C@H]1O5 [Compound 102]	0.15
CN(C(=O)OCc1ccccc1)[C@H]1CC[C@@]2(O)[C@H]3Cc4ccc(O)c5c4[C@@]2(CCN3CC2CC2)[C@H]1O5 [Compound 42]	-0.07

Continue with the compound presented below.
Query: What does the data say about its log10 ED (200% urine output)? Entry: CN(C(=O)CSc1ccccc1)[C@@H]1CC[C@@]2(O)[C@H]3Cc4ccc(O)c5c4[C@@]2(CCN3CC2CC2)[C@H]1O5 [Compound 65]
Result: 2.08

----------
Tgt: κ receptor (Mus musculus)
Construct: from tissue; host or cells: mouse (male ddy) vas deferens
Sequence (P33534 whole entry): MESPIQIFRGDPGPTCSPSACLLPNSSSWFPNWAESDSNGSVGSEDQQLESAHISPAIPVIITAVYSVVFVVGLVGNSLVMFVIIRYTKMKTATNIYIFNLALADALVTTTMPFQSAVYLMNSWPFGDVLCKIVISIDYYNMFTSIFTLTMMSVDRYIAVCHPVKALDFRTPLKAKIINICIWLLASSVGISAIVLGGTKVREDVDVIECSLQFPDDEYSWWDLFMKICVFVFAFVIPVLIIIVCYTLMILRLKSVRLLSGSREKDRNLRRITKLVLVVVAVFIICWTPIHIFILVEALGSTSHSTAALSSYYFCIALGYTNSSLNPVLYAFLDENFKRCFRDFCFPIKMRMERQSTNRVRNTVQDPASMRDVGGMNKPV
Assay Overview: Opioid activity test using an extracted mouse vas deferens preparation, Ke with norBNI
Parameters: species or system male ddy mouse
Recorded Conditions: κ, norBNI added
// Ke, norBNI lookup, one value per entry

// below: answered compounds
Sample Smiles	Readout Kind	Observed Measurement
CN(C(=O)C#Cc1ccc(C(F)(F)F)cc1)[C@H]1CC[C@@]2(O)[C@H]3Cc4ccc(O)c5c4[C@@]2(CCN3CC2CC2)[C@H]1O5	Ke, norBNI	1.20 nM
CN(C(=O)COc1ccccc1)[C@H]1CC[C@@]2(O)[C@H]3Cc4ccc(O)c5c4[C@@]2(CCN3CC2CC2)[C@H]1O5	Ke, norBNI	4.65 nM
CN(C(=O)/C=C/c1ccoc1)[C@H]1CC[C@@]2(O)[C@H]3Cc4ccc(O)c5c4[C@@]2(CCN3CC2CC2)[C@H]1O5	Ke, norBNI	0.85 nM
CN(C(=O)/C=C/c1cccc(F)c1)[C@H]1CC[C@@]2(O)[C@H]3Cc4ccc(O)c5c4[C@@]2(CCN3CC2CC2)[C@H]1O5	Ke, norBNI	4.21 nM

Query: Name the reported Ke, norBNI value associated with the compound `CN(C(=O)CSc1ccccc1)[C@H]1CC[C@@]2(O)[C@H]3Cc4ccc(O)c5c4[C@@]2(CCN3CC2CC2)[C@H]1O5`
Result: 0.416 nM

----------
ED (500% urine output) overview
Assay Overview: Diuretic action (urine output for 5 hours after physiological saline loading in rats)
Type: in vivo, male Wistar rats
Recorded Conditions: Rattus norvegicus, sc, dose giving urine output of 500 (non-dosed group = 100), 5 hours after saline 20 ml/kg p.o.
Field: numeric (mg/kg). Do not append units.

Query: Using the record for `CN(C(=O)Cc1ccc(Cl)c(Cl)c1)[C@H]1CC[C@@]2(O)[C@H]3Cc4ccc(O)c5c4[C@@]2(CCN3CC2CC2)[C@H]1O5` , report its ED (500% urine output).
Result: 0.0457

Query: // ED (500% urine output) lookup, key: `CC(=O)Oc1ccc2c3c1O[C@H]1[C@H](N(C)C(=O)/C=C/c4cccc(C(F)(F)F)c4)CC[C@@]4(O)[C@@H](C2)N(CC2CC2)CC[C@]314`
Result: 3.45

----------
Test system: cultured nerve cells (cerebral cortex)
Assay Overview: cells
Recorded Conditions: Rattus norvegicus, Cerebral cortex neuron, 24 h, read-out: ED50 (protection against glutamic acid toxicity)
Readout Kind: pEC50
As a rule, pEC50 stands for the negative log10 of the concentration, concentration in M.

Worked examples, 2 molecules total:
Sample Smiles	pEC50
CN(C(=O)CCCCCc1ccccc1)[C@H]1CC[C@@]2(O)[C@H]3Cc4ccc(O)c5c4[C@@]2(CCN3CC2CC2)[C@H]1O5	6.64
C[C@H](C(=O)N(C)[C@H]1CC[C@@]2(O)[C@H]3Cc4ccc(O)c5c4[C@@]2(CCN3CC2CC2)[C@H]1O5)c1ccccc1	5.67

Query: Which pEC50 is listed for `CN(C(=O)C#Cc1ccccc1)[C@H]1CC[C@@]2(O)[C@H]3Cc4ccc(O)c5c4[C@@]2(CCN3CC2CC2)[C@H]1O5` ?
Result: 5.57

Query: Which pEC50 is listed for `CN(C(=O)Cc1ccc2ccccc2c1)[C@@H]1CC[C@@]2(O)[C@H]3Cc4ccc(O)c5c4[C@@]2(CCN3CC2CC2)[C@H]1O5` ?
Result: 5.37

Query: Need pEC50 of `CN(C(=O)C#Cc1ccccc1)[C@@H]1CC[C@@]2(O)[C@H]3Cc4ccc(O)c5c4[C@@]2(CCN3CC2CC2)[C@H]1O5` , thanks.
Result: 4.91

Query: Which pEC50 value belongs to `O=C(Cc1ccc(Cl)c(Cl)c1)N[C@H]1CC[C@@]2(O)[C@H]3Cc4ccc(O)c5c4[C@@]2(CCN3CC2CC2)[C@H]1O5` ?
Result: 5.77

----------
Assay Overview: Diuretic action (urine output for 5 hours after physiological saline loading in rats)
Assay type: in vivo, male Wistar rats
Recorded Conditions: Rattus norvegicus, sc, dose giving urine output of 200 (non-dosed group = 100), 5 hours after saline 20 ml/kg p.o.
Method: 7-8 week old male Wistar rats were used in this test after prohibiting from drinking water for 1 hour before the start of testing. […] The animals were placed in metabolic cages immediately after administration of the drug (2 animals/cage) and urine output for 5 hours after loading with physiological saline was measured. […] Those doses were expressed as the ED200 and ED500 values, respectively.
Readout Kind: ED (200% urine output) (µg/kg)
Your answer should be a plain number; it is taken to be in µg/kg.

Query: ED (200% urine output) lookup needed for CN(C(=O)/C=C/c1ccsc1)[C@H]1CC[C@@]2(O)[C@H]3Cc4ccc(O)c5c4[C@@]2(CCN3CC2CC2)[C@H]1O5 [Compound 91] , thanks.
Result: 9.4

Query: Reported ED (200% urine output) for COc1cccc(/C=C/C(=O)N(C)[C@@H]2CC[C@@]3(O)[C@H]4Cc5ccc(O)c6c5[C@@]3(CCN4CC3CC3)[C@H]2O6)c1 [Compound 63] : what is it?
Result: 3.8

Query: Param item = CN(C(=O)CSc1ccccc1)[C@H]1CC[C@@]2(O)[C@H]3Cc4ccc(O)c5c4[C@@]2(CCN3CC2CC2)[C@H]1O5 [Compound 45] ; retrieve measured ED (200% urine output).
Result: 8.1

Query: ED (200% urine output) lookup needed for CN(C(=O)/C=C/c1ccoc1)[C@@H]1CC[C@@]2(O)[C@H]3Cc4ccc(O)c5c4[C@@]2(CCN3CC2CC2)[C@H]1O5 [Compound 61] , thanks.
Result: 3.2

----------
Assay Overview: Diuretic action (urine output for 5 hours after physiological saline loading in rats)
Assay type: in vivo, male Wistar rats
Recorded Conditions: Rattus norvegicus, sc, dose giving urine output of 500 (non-dosed group = 100), 5 hours after saline 20 ml/kg p.o.
Readout Kind: ED (500% urine output) (mg/kg)
Reply numerically in mg/kg, unit not repeated.

For orientation, consider the following solved cases.
Molecule	Unit Info	ED (500% urine output)
CN(C(=O)/C=C/C1CCCCC1)[C@@H]1CC[C@@]2(O)[C@H]3Cc4ccc(O)c5c4[C@@]2(CCN3CC2CC2)[C@H]1O5 [Compound 68]	mg/kg	0.0232
CN(C(=O)/C=C/c1ccoc1)[C@@H]1CC[C@@]2(O)[C@H]3Cc4ccc(O)c5c4[C@@]2(CCN3CC2CC2)[C@H]1O5 [Compound 61]	mg/kg	0.157
CN(C(=O)c1ccc(Cl)c(Cl)c1)[C@H]1CC[C@@]2(O)[C@H]3Cc4ccc(O)c5c4[C@@]2(CCN3CC2CC2)[C@H]1O5 [Compound 27]	mg/kg	2.08

Query: Fill blank: measured ED (500% urine output) of the molecule COc1cccc(C#CC(=O)N(C)[C@H]2CC[C@@]3(O)[C@H]4Cc5ccc(O)c6c5[C@@]3(CCN4CC3CC3)[C@H]2O6)c1.O=C(O)C(O)C(O)C(=O)O [Compound 184] is ____.
Result: 0.0326
